Would you kindly list EC50 for each of these binders?
- subject.of.test: T1, human TNFR2 on the cell membrane (human, UniProt P20333 23-461)
- T1 construct: whole, on cells; One molecule for all cell formats; also called TNFR2-CHO cells; CHO-TNFR2
- T1 sequence (looked up): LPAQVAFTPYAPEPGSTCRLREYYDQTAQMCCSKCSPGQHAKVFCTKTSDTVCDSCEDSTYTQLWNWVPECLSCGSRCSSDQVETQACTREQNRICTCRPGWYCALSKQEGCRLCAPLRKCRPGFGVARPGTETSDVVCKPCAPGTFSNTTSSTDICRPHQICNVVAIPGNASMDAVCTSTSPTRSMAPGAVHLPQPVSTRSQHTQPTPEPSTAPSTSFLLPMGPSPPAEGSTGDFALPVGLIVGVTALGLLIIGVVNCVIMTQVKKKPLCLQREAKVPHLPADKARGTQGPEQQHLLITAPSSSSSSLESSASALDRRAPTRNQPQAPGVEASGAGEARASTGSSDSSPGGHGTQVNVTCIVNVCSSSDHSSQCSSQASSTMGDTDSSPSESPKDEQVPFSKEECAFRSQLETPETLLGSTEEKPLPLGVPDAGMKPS
- assay.explanation: flow cytometry on CHO-TNFR2 cells
Return type: number; implicit unit µg/mL.

33C12huVH3 + huVL2(P07302) (antibody, V domains shown, Humanized 33C12) VH: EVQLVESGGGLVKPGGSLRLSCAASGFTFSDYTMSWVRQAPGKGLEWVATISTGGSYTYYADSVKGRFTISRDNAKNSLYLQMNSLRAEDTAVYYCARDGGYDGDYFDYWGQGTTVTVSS VL: ENVLTQSPATLSLSPGERATLSCRASSSVSSSYLHWYQQKPGQAPRLWIYRTSNLASGVPARFSGSGSGTDFTLTISRLEPEDFAVYYCQQYSGYPLTFGGGTKLEIK yielded EC50 of 0.449

EC50 in this record for 33C12huVH2 + huVL3(P07303) (antibody, V domains shown, Humanized 33C12) VH: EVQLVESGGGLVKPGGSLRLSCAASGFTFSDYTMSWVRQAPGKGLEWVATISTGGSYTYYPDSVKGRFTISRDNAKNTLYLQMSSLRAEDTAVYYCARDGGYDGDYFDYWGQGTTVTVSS VL: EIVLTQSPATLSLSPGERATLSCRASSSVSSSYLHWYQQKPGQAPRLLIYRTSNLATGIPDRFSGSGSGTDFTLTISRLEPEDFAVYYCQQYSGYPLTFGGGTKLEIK : 0.167
